Target: T1, HLA-DR13 (HLA-DRB1*13:01) (human)
T1 construct: mature; purified from homozygous EBV-transformed lymphoblastoid cells with antibody L243
Experiment: competition ELISA vs biotin-B1 21-36
No end group written: not given here.
property-measured: relative affinity
API note: the answer field is a bare number with no unit suffix.

The following binders have reported results that may help.
{"columns": ["binder", "relative affinity"],
 "data": [
  ["SKINAENKAKINMAG-NH2 [CCNB1 9-23]", 146],
  ["QGLTKHMTVKNKYAT-NH2 [CCNB1 392-406]", 7]
]}

Now let's try a different one.
Lab note: measured relative affinity of KDIYAYLRQLEEEQA-NH2 [CCNB1 172-186] was 5
